Target: T1, human VEGF (hVEGF) (human, UniProt P15692 181-395)
T1 construct: also called VEGF-A
T1 sequence: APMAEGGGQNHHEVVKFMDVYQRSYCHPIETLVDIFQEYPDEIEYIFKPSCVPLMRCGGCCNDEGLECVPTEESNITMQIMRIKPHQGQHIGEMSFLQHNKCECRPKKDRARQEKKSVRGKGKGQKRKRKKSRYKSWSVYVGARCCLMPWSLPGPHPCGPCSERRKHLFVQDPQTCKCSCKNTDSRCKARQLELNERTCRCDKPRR
Test: SPR single-cycle
Below, each of the binders is paired with its reported Fold difference (relative to G6.31) value.
Response body: numeric value in fold, unit text excluded.

Example results:
binder	display unit	Fold difference (relative to G6.31)
G6.31 LC-D28R (Fab, V domains shown, Fab) VH: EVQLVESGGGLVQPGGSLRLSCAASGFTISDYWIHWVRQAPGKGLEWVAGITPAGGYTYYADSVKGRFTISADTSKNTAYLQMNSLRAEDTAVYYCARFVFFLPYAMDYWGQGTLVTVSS VL: DIQMTQSPSSLSASVGDRVTITCRASQRVSTAVAWYQQKPGKAPKLLIYSASFLYSGVPSRFSGSGSGTDFTLTISSLQPEDFATYYCQQGYGNPFTFGQGTKVEIK	fold	2.8
G6.31 HC-T73N (Fab, name in Kabat numbering, V domains shown, Fab) VH: EVQLVESGGGLVQPGGSLRLSCAASGFTISDYWIHWVRQAPGKGLEWVAGITPAGGYTYYADSVKGRFTISADNSKNTAYLQMNSLRAEDTAVYYCARFVFFLPYAMDYWGQGTLVTVSS VL: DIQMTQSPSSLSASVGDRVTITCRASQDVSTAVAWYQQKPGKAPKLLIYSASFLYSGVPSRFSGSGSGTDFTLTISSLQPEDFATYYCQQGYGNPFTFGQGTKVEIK	fold	1.8
G6.31 HC-Q81W (Fab, name in Kabat numbering, V domains shown, Fab) VH: EVQLVESGGGLVQPGGSLRLSCAASGFTISDYWIHWVRQAPGKGLEWVAGITPAGGYTYYADSVKGRFTISADTSKNTAYLWMNSLRAEDTAVYYCARFVFFLPYAMDYWGQGTLVTVSS VL: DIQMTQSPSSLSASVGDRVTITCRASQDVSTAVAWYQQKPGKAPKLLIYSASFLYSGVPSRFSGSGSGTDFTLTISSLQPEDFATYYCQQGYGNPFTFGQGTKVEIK	fold	3.4

What Fold difference (relative to G6.31) value was documented for this binder, G6.31 LC-Y36G (Fab, V domains shown, Fab) VH: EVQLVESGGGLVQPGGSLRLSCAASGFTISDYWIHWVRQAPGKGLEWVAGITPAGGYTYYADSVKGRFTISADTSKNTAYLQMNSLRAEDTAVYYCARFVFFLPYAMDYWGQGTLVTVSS VL: DIQMTQSPSSLSASVGDRVTITCRASQDVSTAVAWGQQKPGKAPKLLIYSASFLYSGVPSRFSGSGSGTDFTLTISSLQPEDFATYYCQQGYGNPFTFGQGTKVEIK ?
0.6

# query: Fold difference (relative to G6.31) of entry G6.31 LC-S50M (Fab, V domains shown, Fab) VH: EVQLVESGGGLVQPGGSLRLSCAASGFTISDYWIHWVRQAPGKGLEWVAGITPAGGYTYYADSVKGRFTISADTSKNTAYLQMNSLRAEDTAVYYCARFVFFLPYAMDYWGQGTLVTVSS VL: DIQMTQSPSSLSASVGDRVTITCRASQDVSTAVAWYQQKPGKAPKLLIYMASFLYSGVPSRFSGSGSGTDFTLTISSLQPEDFATYYCQQGYGNPFTFGQGTKVEIK
1.2
